# credit: ChEMBL document CHEMBL1152232

TARGET_DESC: Muscarinic acetylcholine receptor M2 (Homo sapiens, UniProt P08172)
ASSAY_EXPLANATION: Antagonist activity at human recombinant muscarinic M2 receptor expressed in CHO cells coexpressing chimeric G protein Gqi5 assessed as inhibition of acetylcholine-induced intracellular Ca2+ mobilization by FLIPR assay
Format: functional, cell-based
CONDITION_SUMMARY: read-out: pA2 (converted)
ASSAY_ENDPOINT: Kb (nM)

Worked set:
COMPOUND | TARGET_DESC | Kb [nM]
CC(C)OC(=O)c1ccc(NC(=O)N[C@@H](Cc2ccc(O)cc2)C(=O)N[C@H]2CCC[N+](CC3CC3)(CC3CC3)C2)cc1 | Muscarinic acetylcholine receptor M2 (Homo sapiens, UniProt P08172) | 5.01
CC(C)OC(=O)c1ccc(NC(=O)N[C@@H](Cc2ccc(O)cc2)C(=O)N[C@H]2CCC[N+]3(CCCCCC3)C2)cc1 | Muscarinic acetylcholine receptor M2 (Homo sapiens, UniProt P08172) | 5.01

1: CC(C)NC(=O)c1ccc(NC(=O)N[C@@H](Cc2ccc(O)cc2)C(=O)N[C@H]2CCC[N+](C)(Cc3ccc(O)cc3)C2)cc1 (stereo not given in full)
2: C=CC[N+]1(Cc2cccc(O)c2)CCC[C@H](NC(=O)[C@H](Cc2ccc(O)cc2)NC(=O)Nc2ccc(C(=O)OC(C)C)cc2)C1 (stereo not given in full)
3: Cc1noc(-c2ccc(NC(=O)N[C@@H](Cc3ccc(O)cc3)C(=O)N[C@H]3CCC[N+](C)(Cc4ccc(O)cc4)C3)cc2)n1 (stereo not given in full)
Put the compounds in ascending order of Kb. Please reply with the labels ordered as requested. Many thanks. 2, 1, 3

---

TARGET_DESC: Muscarinic acetylcholine receptor M2 (Homo sapiens)
ASSAY_EXPLANATION: Antagonist activity at human recombinant muscarinic M2 receptor expressed in CHO cells coexpressing chimeric G protein Gqi5 assessed as inhibition of acetylcholine-induced intracellular Ca2+ mobilization by FLIPR assay
pIC50: −log10 of the molar value.
ASSAY_ENDPOINT: pIC50

COMPOUND | pIC50
CC(C)OC(=O)c1ccc(NC(=O)N[C@@H](Cc2ccc(O)cc2)C(=O)NC2CCN(Cc3ccc(O)cc3)C2)cc1 (stereo partly specified) | 7.10

I: CCOC(=O)c1ccc(NC(=O)N[C@@H](Cc2ccc(N)cc2)C(=O)N[C@H]2CC[N+](C)(Cc3ccc4c(c3)OCO4)C2)cc1 (stereo partly specified)
II: CCOC(=O)c1ccc(NC(=O)N[C@@H](Cc2ccc(O)cc2)C(=O)NC2CCN(CC3CC3)C2)cc1 (stereo partly specified)
III: CCOC(=O)c1ccc(NC(=O)N[C@@H](Cc2ccc(C(F)(F)F)cc2)C(=O)N[C@H]2CC[N+](C)(Cc3ccc4c(c3)OCO4)C2)cc1 (stereo partly specified)
Rank by pIC50 (largest to smallest). Respond with an ordered listing of the labels, as requested. III, I, II

---

TARGET_DESC: Muscarinic acetylcholine receptor M2 (Homo sapiens, UniProt P08172)
ASSAY_EXPLANATION: Antagonist activity at human recombinant muscarinic M2 receptor expressed in CHO cells coexpressing chimeric G protein Gqi5 assessed as inhibition of acetylcholine-induced intracellular Ca2+ mobilization by FLIPR assay
ASSAY_ENDPOINT: IC50 (µM)

COMPOUND | IC50 [µM]
CCOC(=O)c1ccc(NC(=O)N[C@@H](Cc2ccc(OC)cc2)C(=O)N[C@H]2CC[N+](C)(Cc3ccc4c(c3)OCO4)C2)cc1 (some centres not stated) | 0.00501

a: CCOC(=O)c1ccc(NC(=O)N[C@@H](Cc2ccc(O)cc2)C(=O)NC2CCN(Cc3cccc(OC)c3)C2)cc1 (some centres not stated)
b: CCOC(=O)c1ccc(NC(=O)N[C@@H](Cc2ccccc2Cl)C(=O)N[C@H]2CC[N+](C)(Cc3ccc4c(c3)OCO4)C2)cc1 (some centres not stated)
Could you kindly indicate whether a or b has the higher IC50 value? Your answer should be the label of the entry you select. a

---

TARGET_DESC: Muscarinic acetylcholine receptors; M2 & M3 (Homo sapiens) (UniProt P20309+P08172)
ASSAY_EXPLANATION: Selectivity for human recombinant muscarinic M3 receptor over human recombinant muscarinic M2 receptor
ASSAY_ENDPOINT: Selectivity ratio

COMPOUND | ASSAY_ENDPOINT | OBSERVED
CCOC(=O)c1ccc(NC(=O)N[C@@H](Cc2ccc(O)cc2)C(=O)NC2CCN(Cc3ccc(O)cc3)C2)cc1 (mixture of isomers) | Selectivity ratio | 10
CCOC(=O)c1ccc(NC(=O)N[C@@H](Cc2ccc(O)cc2)C(=O)NC2CCN(CC3CC3)C2)cc1 (stereo partly drawn) | Selectivity ratio | 10
CCOC(=O)c1ccc(NC(=O)N[C@@H](Cc2ccc(O)cc2)C(=O)NC2CCN(Cc3cccc(C#N)c3)C2)cc1 (stereo partly drawn) | Selectivity ratio | 10

---

TARGET_DESC: Muscarinic acetylcholine receptor M2 (Homo sapiens, UniProt P08172)
Sequence (P08172 whole entry): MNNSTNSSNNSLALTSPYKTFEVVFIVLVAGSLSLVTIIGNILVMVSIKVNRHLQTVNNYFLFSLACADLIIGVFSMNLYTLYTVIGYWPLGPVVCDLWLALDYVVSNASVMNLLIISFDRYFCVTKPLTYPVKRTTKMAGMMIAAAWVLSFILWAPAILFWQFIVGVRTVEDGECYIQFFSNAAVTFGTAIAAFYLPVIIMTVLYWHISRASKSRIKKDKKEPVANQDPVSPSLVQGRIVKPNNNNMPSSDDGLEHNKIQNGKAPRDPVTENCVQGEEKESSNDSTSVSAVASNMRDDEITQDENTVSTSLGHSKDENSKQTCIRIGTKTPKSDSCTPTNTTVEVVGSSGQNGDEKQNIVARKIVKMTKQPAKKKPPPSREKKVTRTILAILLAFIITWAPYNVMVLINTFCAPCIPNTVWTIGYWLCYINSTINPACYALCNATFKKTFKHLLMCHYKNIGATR
ASSAY_EXPLANATION: Antagonist activity at human recombinant muscarinic M2 receptor expressed in CHO cells coexpressing chimeric G protein Gqi5 assessed as inhibition of acetylcholine-induced intracellular Ca2+ mobilization by FLIPR assay
ASSAY_ENDPOINT: IC50 (nM)

Check out these entries, answers already filled in.
MOLECULE | IC50 / nM
CCOC(=O)c1ccc(NC(=O)N[C@@H](Cc2ccc(O)cc2)C(=O)N[C@H]2CCC[N+](C)(Cc3ccc(F)cc3)C2)cc1 (stereo not given in full) | 2.51
CCOC(=O)c1ccc(NC(=O)N[C@@H](Cc2ccc(O)cc2)C(=O)NC2CCN(Cc3ccc4c(c3)OCO4)C2)cc1 (stereo not given in full) | 200
CCOC(=O)c1ccc(NC(=O)N[C@@H](Cc2ccc(O)cc2)C(=O)NC2CCN(Cc3ccccc3)C2)cc1 (stereo not given in full) | 200
CCOC(=O)c1ccc(NC(=O)N[C@@H](Cc2ccc(O)cc2)C(=O)NC2CCN(Cc3cccc(O)c3)C2)cc1 (stereo not given in full) | 158
CCOC(=O)c1ccc(NC(=O)N[C@@H](Cc2ccc(Br)cc2)C(=O)N[C@H]2CC[N+](C)(Cc3ccc4c(c3)OCO4)C2)cc1 (stereo not given in full) | 3.98

I: CCCOC(=O)c1ccc(NC(=O)N[C@@H](Cc2ccc(O)cc2)C(=O)NC2CCN(Cc3ccc(O)cc3)C2)cc1 (stereo not given in full)
II: CC(C)NC(=O)c1ccc(NC(=O)N[C@@H](Cc2ccc(O)cc2)C(=O)NC2CCN(Cc3ccc(C#N)cc3)C2)cc1 (stereo not given in full)
III: CCOC(=O)c1ccc(NC(=O)N[C@@H](Cc2cccc(Cl)c2)C(=O)N[C@H]2CC[N+](C)(Cc3ccc4c(c3)OCO4)C2)cc1 (stereo not given in full)
IV: CCOC(=O)c1ccc(NC(=O)N[C@@H](Cc2ccc(F)cc2)C(=O)N[C@H]2CC[N+](C)(Cc3ccc4c(c3)OCO4)C2)cc1 (stereo not given in full)
V: CCOC(=O)c1ccc(NC(=O)N[C@@H](Cc2ccc(O)cc2)C(=O)NC2CCN(Cc3ccccc3OC)C2)cc1 (stereo not given in full)
# sort list by recorded IC50, greatest to least The labels, placed in the requested order, form the answer. II, V, I, IV, III
(II: 1580 nM, V: 158 nM, I: 100 nM, IV: 10 nM, III: 3.98 nM)

P: CCOC(=O)c1ccc(NC(=O)N[C@@H](Cc2ccc(O)cc2)C(=O)NC2CCN(CC)C2)cc1 (stereo not given in full)
Q: CC(C)COC(=O)c1ccc(NC(=O)N[C@@H](Cc2ccc(O)cc2)C(=O)NC2CCN(Cc3ccc(O)cc3)C2)cc1 (stereo not given in full)
Compare P and Q by numeric IC50 and name the larger one. Mark your selection by writing its label. P

---

TARGET_DESC: Muscarinic acetylcholine receptor M1 (Homo sapiens, UniProt P11229)
Sequence (P11229 whole entry): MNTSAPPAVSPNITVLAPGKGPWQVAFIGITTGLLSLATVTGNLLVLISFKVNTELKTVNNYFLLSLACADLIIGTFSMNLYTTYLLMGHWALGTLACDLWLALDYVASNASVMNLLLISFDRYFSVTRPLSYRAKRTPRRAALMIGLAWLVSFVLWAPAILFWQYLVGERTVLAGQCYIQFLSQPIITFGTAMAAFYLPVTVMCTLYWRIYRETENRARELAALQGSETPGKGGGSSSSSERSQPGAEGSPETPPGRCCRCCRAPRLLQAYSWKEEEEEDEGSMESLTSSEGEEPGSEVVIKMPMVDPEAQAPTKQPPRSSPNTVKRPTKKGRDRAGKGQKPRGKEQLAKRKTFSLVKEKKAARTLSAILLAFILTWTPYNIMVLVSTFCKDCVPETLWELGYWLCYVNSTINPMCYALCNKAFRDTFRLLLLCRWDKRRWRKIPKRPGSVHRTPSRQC
ASSAY_EXPLANATION: Antagonist activity at human recombinant muscarinic M1 receptor expressed in CHO cells assessed as inhibition of acetylcholine-induced intracellular Ca2+ mobilization by FLIPR assay
pIC50: −log10 of the molar value.
ASSAY_ENDPOINT: pIC50

As a guide, the following entries are already answered.
MOLECULE | pIC50
CCOC(=O)c1ccc(NC(=O)N[C@@H](Cc2ccc(C)cc2)C(=O)N[C@H]2CC[N+](C)(Cc3ccc4c(c3)OCO4)C2)cc1 (some centres not stated) | 7.00
CCOC(=O)c1ccc(NC(=O)N[C@@H](Cc2ccc(O)cc2)C(=O)N[C@H]2CC[N+](C)(Cc3ccc(F)cc3)C2)cc1 (some centres not stated) | 6.70
O=C(Nc1ccc(C(=O)OCC2CC2)cc1)N[C@@H](Cc1ccc(O)cc1)C(=O)NC1CCN(Cc2ccc(O)cc2)C1 (some centres not stated) | 6.00

A: CCOC(=O)c1ccc(NC(=O)N[C@@H](Cc2ccc(O)cc2)C(=O)NC2CCN(Cc3cccc(Cl)c3)C2)cc1 (some centres not stated)
B: CCOC(=O)c1ccc(NC(=O)N[C@@H](Cc2ccc(Cl)cc2)C(=O)N[C@H]2CC[N+](C)(Cc3ccc4c(c3)OCO4)C2)cc1 (some centres not stated)
Lab note: check whether A or B shows the higher recorded pIC50. Write down the label attached to your selection. B
(B: 7.40, A: 5.90)
